The measurements presented in this section are drawn from patent US9206412B2.

target: dengue virus capping enzyme (Dengue virus type 2, UniProt P29990); test: biochemical; assay type: binding, dengue virus type 2 (strain 16681); conditions: read-out: FP_DEN_Ki_AVG_DEN_M
Sequence (P29990 2492-2758): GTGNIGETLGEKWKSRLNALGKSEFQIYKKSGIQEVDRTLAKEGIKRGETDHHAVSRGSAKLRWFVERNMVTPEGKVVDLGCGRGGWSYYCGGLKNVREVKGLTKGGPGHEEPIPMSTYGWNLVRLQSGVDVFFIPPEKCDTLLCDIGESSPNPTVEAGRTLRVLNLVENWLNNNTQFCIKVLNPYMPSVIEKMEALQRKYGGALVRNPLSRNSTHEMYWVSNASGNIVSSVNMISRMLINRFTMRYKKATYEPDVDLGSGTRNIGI
pKi: −log10 of the molar value.
Everything with pKi lower than 5 is false (0); everything else, including exactly 5, is true (1).

input: Identify whether the reported pKi of the following molecule is 5 or greater: O=C(CCCN1C(=O)/C(=C/c2ccc(F)cc2)SC1=S)Nc1cccc(C(=O)O)c1
output: false (0)

input: Identify whether the reported pKi of the following molecule is 5 or greater: CC(=C1SC(=S)NC1=O)c1ccc(C)cc1
output: false (0)

input: Identify whether the reported pKi of the following molecule is 5 or greater: COc1ccc2nc(N3CCCCC3)c(C=C3SC(=S)NC3=O)cc2c1
output: true (1)

input: Identify whether the reported pKi of the following molecule is 5 or greater: CC(C)(C)c1ccc(/C=C2\SC(=S)N(CCC(=O)O)C2=O)cc1
output: true (1)

input: Identify whether the reported pKi of the following molecule is 5 or greater: CCc1ccc(/C=C2\SC(=S)N(CCC(=O)Nc3ccc(C(=O)O)cc3)C2=O)cc1
output: true (1)

input: Identify whether the reported pKi of the following molecule is 5 or greater: O=C1C(=Cc2cccc(Br)c2)SC(=S)N1CN1CCCCC1
output: false (0)

input: Identify whether the reported pKi of the following molecule is 5 or greater: O=C(O)CN1C(=O)C(=Cc2cc(Br)cc(Cl)c2O)SC1=S
output: false (0)

* * *

Documented pKi across a set of compounds
biological target: dengue virus capping enzyme (Dengue virus type 2); assay: biochemical; type: binding, dengue virus type 2 (strain 16681); details: read-out: FP_DEN_Ki_AVG_DEN_M
Just so you know, pKi here is -log10 of the concentration in molar units; reply with that number alone.

Consider the reported pKi for these compounds:
| compound | assayed_system | measured_result |
| --- | --- | --- |
| CC(C)(C)c1ccc(CC2SC(=S)N(CCC(=O)O)C2=O)cc1 (racemic) | dengue virus capping enzyme (Dengue virus type 2) | 5.00 |
| O=C(CN1C(=O)/C(=C/c2ccccc2Cl)SC1=S)Nc1ccccc1C(=O)O | dengue virus capping enzyme (Dengue virus type 2) | 5.52 |
| CN1C(=O)S/C(=C\c2ccc(-c3ccc(C(=O)O)c(Cl)c3)o2)C1=O | dengue virus capping enzyme (Dengue virus type 2) | 4.89 |
| CC(C)c1ccc(/C=C2\SC(=S)N(CC(=O)O)C2=O)cc1 | dengue virus capping enzyme (Dengue virus type 2) | 4.74 |
| O=C(O)CCCN1C(=O)/C(=C/c2ccc(Cl)cc2Cl)SC1=S | dengue virus capping enzyme (Dengue virus type 2) | 4.82 |

The reported value for COc1c(I)cc(I)cc1/C=C1\SC(=S)N(CC(=O)O)C1=O in terms of pKi is 5.70

The reported value for CC(C)c1ccc(C=C2SC(=S)N(CCC(=O)O)C2=O)cc1 in terms of pKi is 4.92

The reported value for O=C(CN1C(=O)S/C(=C\c2ccccc2F)C1=O)Nc1ccccc1C(=O)O in terms of pKi is 4.64

The reported value for O=C1NC(=S)SC1=Cc1cccc(Cl)c1Cl in terms of pKi is 5.15

The reported value for O=C(CN1C(=O)/C(=C/c2ccccc2F)SC1=S)Nc1ccccc1C(=O)O in terms of pKi is 5.52

The reported value for CC(C(=O)O)N1C(=O)C(=Cc2ccc(Cl)cc2Cl)SC1=S (centres unmarked) in terms of pKi is 5.15

The reported value for C=CCOc1ccc(Cl)cc1/C=C1\SC(=S)NC1=O in terms of pKi is 5.70

The reported value for CC(C)(C)c1ccc(C=C2SC(=S)N(CCC(=O)NS(C)(=O)=O)C2=O)cc1 in terms of pKi is 5.52

The reported value for O=C(O)CN1C(=O)/C(=C/c2ccc(F)c(Br)c2)SC1=S in terms of pKi is 4.57

The reported value for O=C(CN1C(=O)/C(=C/c2ccccc2F)SC1=S)Nc1cccc(C(=O)O)c1 in terms of pKi is 5.22

The reported value for Cc1cccc(N2C(=O)/C(=C/c3ccc(C(=O)O)cc3)SC2=S)c1C in terms of pKi is 4.96
